assay.notes: human hepatoma cell viability loss – ATP luminescence, cytotoxicity control for P. falciparum antimalarial project, primary screen (AID 2303);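 further: 0% = DMSO wells and 100% = digitonin-killed cells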
condition: HepG2 viability, 24-48 h, at 10 µM, hits give high values
Reported inhibition values are given for each entry in this list.
# output: bare number, implied unit %

c1cc(CNCC2CCN(CC3CCCCC3)CC2)cc(-n2ccnc2)c1	18
COc1cc(F)c2ncc(Cl)c(CCN3CCC(NCc4ccc5c(n4)NC(=O)CO5)CC3)c2c1	20
NC(N)=Nc1nc(CCCCCCCCc2csc(N=C(N)N)n2)cs1	27
CCN(CC)CCCC(C)Nc1c(-c2ccc(C)cc2)cnc2ccccc12 (stereo unspecified)	8
CN(C)Cc1ccc(-c2cc3ncnc(Nc4ccc(OCc5cccc(F)c5)c(Cl)c4)c3s2)[nH]1	53

query: State its inhibition: CCOC(=O)C1=C(C)NC2=C(C(=O)CC(C)(C)C2)C1c1ccc(Br)cc1 (stereo unspecified)
result: 0

query: Tell me inhibition reported for Nc1nc2c(ncn2COC2COP(=O)(O)OC2)c(=O)[nH]1 (stereo unspecified)
result: 7

query: Give the value of inhibition reported for the following: N#Cc1ccc(C(=O)Nc2ccc(Cl)c(N3CCN(CCc4ccccc4)CC3)c2)cc1
result: 5

query: Find the measured inhibition of COc1ccc2ncc(Cl)c([C@@H](O)CN3CCC(NCc4cc5c(cn4)OCCO5)CC3)c2c1 and report it.
result: 8

query: Report inhibition for O=C(NC(=S)Nc1cc(C(F)(F)F)cc(C(F)(F)F)c1)c1ccc(Cl)cc1
result: 31

---

In this section, each of the compounds is paired with its reported inhibition.
assay.notes: human hepatoma cell viability loss – ATP luminescence, cytotoxicity control for P. falciparum antimalarial project, primary screen (AID 2303);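 further: 0% = DMSO wells and 100% = digitonin-killed cells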
condition: HepG2 viability, 24-48 h, at 10 µM, hits give high values
Field: numeric (%). Do not append units.

// worked examples, inhibition included
CCCCCC(C)N=C(Nc1ccc(C#N)cc1O)Nc1ccccc1Br (stereo not drawn)	2
COC(=O)C(Cc1ccccc1)NC(=O)NC1CCN(c2ccnc(Nc3ccc(F)cc3)n2)C1 (stereo not drawn)	0
O=C(Nc1nc2ccc(Cl)cc2s1)c1csnn1	15
O=S(=O)(Nc1ccc(CCN2CCCCC2CCN2CCCC2)cc1)c1ccc(-c2ccccc2)cc1 (stereo not drawn)	18
COc1cc2[nH]c(-c3ccc(O)cc3)c(C)c(=O)c2c(OC)c1OC	1
CN1C[C@@H](c2ccccc2)c2cc(O)c(CN3CCCCC3)cc2C[C@H]1Cc1ccccc1	-6
COc1ccc(CCNCCCCCCNCCc2ccc(Cl)cc2)c(Cl)c1OC	88
CCc1cn(C)c2c(N3CCCC3=O)cc(C(=O)N[C@@H](Cc3ccccc3)[C@H](O)CNC(C)(C)c3cccc(C(F)(F)F)c3)cc12	22
CC(=O)Nc1ccc(CN(Cc2ccc(F)cc2)Cc2ccc3c(c2)OCO3)cc1	3
Cc1cc2c(cc1C(F)(F)F)N(C(=O)Nc1ccc(C(=O)NC3CCN(Cc4ccccc4)C3)cc1)CC2 (stereo not drawn)	19

Next up:
query: Input COc1cc(CNC[C@@H](O)[C@H](Cc2ccccc2)NC(=O)c2cc(OC(C)C)cc(N3CCCS3(=O)=O)c2)cc(OC)c1 , output reported inhibition.
result: -1

---

assay.notes: antimalarial activity against Dd2 strain (AID 2302);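 further: 0% = DMSO untreated growth and 100% = chloroquine plus artemisinin killed control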
condition: P. falciparum Dd2 in RBCs, LDH growth readout, 72 h; at 2 µM
Activity calls are given as the source filed them.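 How the source made its calls: active means growth inhibition above 50% at the single 2 µM test dose, taken to imply half-maximal potency below 2 µM; inactive means the rest.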
Outcome field: choose from active, inactive

query: So what was the verdict on COc1c(C2CCN(CCCCNC(=O)c3ccc(-c4ccc(C#N)cc4)cc3)CC2)ccc2c1C(C)(C)CCC2(C)C in this test?
result: active

---

assay.notes: inhibition of 3D7 malaria parasite growth – strain 3D7 (AID 2306);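 further: 0% = DMSO wells and 100% = chloroquine plus artemisinin control wells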
condition: P. falciparum 3D7 erythrocytic growth, LDH absorbance, 72 h; at 2 µM; hits give high values
As shown below, each of these compounds has a reported growth inhibition value.
Entry rule: numbers only, all in %.

Use these answered entries as a reference point.
COc1ccc2nccc(NCC3(O)CCN(CCc4ccc5c(c4)OCCO5)CC3)c2n1	100
CS(=O)(=O)c1ccc(CCNCc2ccc(-c3ccc(CN(C(=O)C4CC(=O)c5ccccc54)C4CCN(Cc5ccccc5)CC4)cc3)nc2)cc1 (centres undefined)	100
CCCOc1cc(O)c(-c2n[nH]c(C)c2Oc2ccccc2)cc1CC	91
Cc1cccc2[nH]c(-c3cccc(-c4ccc(NC(=O)COC(C)C)cc4)c3)nc12	82

query: Please supply the value of reported growth inhibition for the item CN(C)C(=O)CCCn1c(CNCCCNc2cc(=O)c3ccccc3[nH]2)cc2c(Cl)cc(Cl)cc21
result: 89

query: Please give the documented growth inhibition of COc1ccc(C(=O)CCC(=O)N(Cc2ccc(-c3ccc(CNCCc4ccc(S(C)(=O)=O)cc4)cn3)cc2)C(C)CN(C)C)cc1F (centres undefined)
result: 98

query: Please supply the value of reported growth inhibition for the item CCN(CCNS(C)(=O)=O)c1ccc(N)c(C)c1
result: 91

query: Read off the recorded growth inhibition for CC(C)N(Cc1cnc2nc(N)nc(N)c2n1)c1ccc(Cl)c(Cl)c1
result: 101

---

assay.notes: human hepatoma cell viability loss – ATP luminescence, cytotoxicity control for P. falciparum antimalarial project, primary screen (AID 2303);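 further: 0% = DMSO wells and 100% = digitonin-killed cells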
condition: HepG2 viability, 24-48 h, at 10 µM, hits give high values
// boundary case: inhibition equal to 20% maps to not fulfilled; strictly smaller maps to fulfilled

query: Given the entry COc1cc2c(c(OC)c1[N+](=O)[O-])C=CC1(O2)N(C)c2ccc([N+](=O)[O-])cc2C1(C)C (centres undefined) , would its reported inhibition be below 20%?
result: fulfilled

---

assay.notes: antimalarial activity against Dd2 strain (AID 2302);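 further: 0% = DMSO untreated growth and 100% = chloroquine plus artemisinin killed control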
condition: P. falciparum Dd2 in RBCs, LDH growth readout, 72 h; at 2 µM
Activity calls are given as the source filed them.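 The calls were made as follows: active = growth inhibition above 50% at the single 2 µM test dose, taken to imply half-maximal potency below 2 µM; inactive = the rest.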
Pick one and only one: 1 (yes) = active, 0 (no) = inactive

Below, 3 molecules whose answers are already recorded.
Fc1ccc2nc(-c3ccc(-c4ccc(CNCC5CCCO5)cc4)cc3)[nH]c2c1 (stereo not given)	1 (yes)
O=C(NCCCN1CCCC1=O)c1cnc(N2CCC(Oc3ccccc3)CC2)c(Cl)c1	1 (yes)
c1cc(Nc2nccc(-c3cnn4ncccc34)n2)cc(-c2cnco2)c1	1 (yes)

query: Status in this test for C=CCn1cc(C2CCN(CCCCNC(=O)c3sc(-c4ccc(C(F)(F)F)cc4)nc3CO)CC2)c2cc(OC)ccc21 ?
result: 0 (no)

query: Could you please tell me the result logged for COc1ccc(CCC(C)N2C[C@@H](N)[C@H](c3cn(C)c4cnccc34)C2)cc1 (stereo not given in full) in this assay?
result: 0 (no)

query: // param item: COc1cc2c(cc1S(=O)(=O)c1ccc(NC(=O)Nc3ccc(F)cc3)cc1)CCN(C)CC2 ; yields the recorded call
result: 1 (yes)

---

target.or.system: Protein kinase 7 (PK7), Plasmodium falciparum 3D7 (PF3D7_0213400)
assay.notes: inhibition of Plasmodium PK7 catalytic activity – biochemical, TCAMS antimalarial set, Kinase-Glo luminescence (AID 1159587)
condition: recombinant PfPK7, Kinase-Glo ATP depletion luminescence
Active and inactive are the calls of the source. No rule for the calls is given here.
quantity: outcome

Known outcome results, listed for orientation:
CC(C)(C)[C@@H](Nc1ccc(C#N)c2ccccc12)C(=O)NC1(Cc2ccc(O)c(Br)c2)CCCC1	inactive
CCCCN(C(=O)c1ccccc1Cl)c1nnc(-c2ccccc2C)s1	inactive
CCC(=Cc1cccc([N+](=O)[O-])c1)C(=O)NCC1CCN(c2nc(N)c3cc(OC)c(OC)cc3n2)CC1	inactive
CN1CCCC1CCNCc1cccc(-c2cnc(N3CCCC(C)(C)C3)nc2)c1 (centres undefined)	inactive
CCCCCCOc1ccccc1C(=O)NCCOc1ccc(Cl)cc1	inactive

As a next step, examine the compound that follows.
query: In one line, give reported outcome of the entry Cc1ccc(CON2C(N)=NC(N)=NC2(C)C)c(Cl)c1 (tested in a mixture with another compound) .
result: inactive

---

assay.notes: human hepatoma cell viability loss – ATP luminescence, cytotoxicity control for P. falciparum antimalarial project, primary screen (AID 2303);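 further: 0% = DMSO wells and 100% = digitonin-killed cells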
condition: HepG2 viability, 24-48 h, at 10 µM, hits give high values
The source made the active and inactive calls.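 The calls were made as follows: active = inhibition above 50%; inactive = the rest.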
quantity: inhibition

The examples below pair each entry with its known result.
O=C(/C=C/c1ccc(Cl)cc1)NCCCCCN1CCN(C(=O)C=Cc2ccc(Cl)c(Cl)c2)CC1	30% (inactive)
CCOC(=O)c1ccc(NC(=O)NCCCC2CCCN(CCCCCNC(=O)/C=C/c3ccc(Cl)c(Cl)c3)C2)cc1 (stereo not given)	14% (inactive)
O=C(C1CC1)N1c2ccccc2CCc2ccccc21	40% (inactive)
O=C(NCCCCN1CCC(c2c[nH]c3ccc(-c4ccccc4)cc23)CC1)c1ccc(-c2ccccc2)cc1	48% (inactive)

// next item, inhibition requested
query: Specify reported inhibition for the compound shown: COc1ccccc1Nc1nc(C)cc(NCc2ccc(-c3c(C)noc3C)cc2)n1
result: 12% (inactive)

---

Below, each entry is listed with its recorded growth inhibition.
assay.notes: inhibition of 3D7 malaria parasite growth – strain 3D7 (AID 2306);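 further: 0% = DMSO wells and 100% = chloroquine plus artemisinin control wells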
condition: P. falciparum 3D7 erythrocytic growth, LDH absorbance, 72 h; at 2 µM; hits give high values
Note: unit % is implicit; provide only the numeric part.

# count of solved cases: 5
CCNc1cc(C(=O)N[C@@H](Cc2ccccc2)[C@H](O)CNC(C)CC(C)C)c(F)c(N2CCCCS2(=O)=O)c1 (stereo partly drawn)	95
O=C(Nc1ccccc1)Nc1cccc(-c2cccc(-c3nc4ccc(F)cc4[nH]3)c2)c1	99
CCCCn1c(C(C)Oc2ccc(Cl)cc2Cl)nc2cc(S(N)(=O)=O)ccc21 (stereo not drawn)	94
Cc1cc(N2CC=CCC2)nc(/N=C(\N)Nc2ccc(Cl)cc2)n1	100
CC(C)CC(=O)N(Cc1ccc(-c2ccc(CNC3Cc4ccccc4C3)cc2)cc1)C1CCNCC1	85

query: Give reported growth inhibition value for COc1ccc([N+](=O)[O-])cc1N(Cc1ccccc1-c1ccccc1)S(=O)(=O)c1ccc(C(F)(F)F)cc1
result: 96

query: Input FC(F)(F)c1ccc2c(NCCNc3ccnc4cc(C(F)(F)F)ccc34)ccnc2c1 , output reported growth inhibition.
result: 101

query: For the molecule O=C(Nc1cccc(C(F)(F)F)c1)c1ccc(S(=O)(=O)NCC2CCCN2CC2CCCCC2)cc1 (stereo not drawn) , give its measured growth inhibition value.
result: 98

query: State its growth inhibition: Cc1cc(N[C@@H](Cc2ccccc2)C(=O)NCc2cccs2)nc(NCCc2ccccn2)n1
result: 93

query: Provide one value: measured growth inhibition of COc1ccc(Cl)cc1N1CCN(CCCNC(=O)c2ccc(-c3nc4cc(Cl)c(F)cc4[nH]3)s2)CC1
result: 101

query: Return growth inhibition for the following molecule: OC(CNCc1ccccc1OCc1ccccc1)c1cc(Br)cs1 (stereo not drawn)
result: 97

query: Could you please provide reported growth inhibition for CCCc1cc(C(=O)N[C@@H](Cc2ccccc2)[C@H](O)CNC2CCOCC2)c(F)c(N2CCCCS2(=O)=O)c1 ? Thanks!
result: 97

query: Quote growth inhibition reported for Cc1[nH]c2ccc(-c3ccccc3)cc2c(=O)c1Br please.
result: 97

query: # return recorded growth inhibition for input Cc1cccc(C)c1CNc1ccnc2cc(Br)ccc12
result: 95

query: Return growth inhibition for the following molecule: CN1CCC(NCc2ccc(-c3ccc(Cl)cc3)cc2)CC1
result: 99

query: Look up and state reported growth inhibition for Clc1ccc(CNc2ccnc(NCCc3coc4ccccc34)n2)c(Cl)c1
result: 86

query: Entry COc1ccc(-c2ccc(NC(=O)c3cccc(C#N)c3)cc2)cc1CN(C)C needs its growth inhibition filled in; supply it.
result: 103

query: Look up and report measured growth inhibition for this entry: CCCC(CCC)n1ccc2c3c(N)nc(N)nc3ccc21
result: 98

query: Consider the molecule CC(=O)Nc1cc(C(=O)Nc2cccc(-c3cccc(-c4nc5ccc(C(F)(F)F)cc5[nH]4)c3)c2)ccc1C . State its measured growth inhibition.
result: 97
